- target_under_test: human TRPV3 receptors (Homo sapiens (Human), UniProt Q8NET8)
- Sequence (Q8NET8 whole entry): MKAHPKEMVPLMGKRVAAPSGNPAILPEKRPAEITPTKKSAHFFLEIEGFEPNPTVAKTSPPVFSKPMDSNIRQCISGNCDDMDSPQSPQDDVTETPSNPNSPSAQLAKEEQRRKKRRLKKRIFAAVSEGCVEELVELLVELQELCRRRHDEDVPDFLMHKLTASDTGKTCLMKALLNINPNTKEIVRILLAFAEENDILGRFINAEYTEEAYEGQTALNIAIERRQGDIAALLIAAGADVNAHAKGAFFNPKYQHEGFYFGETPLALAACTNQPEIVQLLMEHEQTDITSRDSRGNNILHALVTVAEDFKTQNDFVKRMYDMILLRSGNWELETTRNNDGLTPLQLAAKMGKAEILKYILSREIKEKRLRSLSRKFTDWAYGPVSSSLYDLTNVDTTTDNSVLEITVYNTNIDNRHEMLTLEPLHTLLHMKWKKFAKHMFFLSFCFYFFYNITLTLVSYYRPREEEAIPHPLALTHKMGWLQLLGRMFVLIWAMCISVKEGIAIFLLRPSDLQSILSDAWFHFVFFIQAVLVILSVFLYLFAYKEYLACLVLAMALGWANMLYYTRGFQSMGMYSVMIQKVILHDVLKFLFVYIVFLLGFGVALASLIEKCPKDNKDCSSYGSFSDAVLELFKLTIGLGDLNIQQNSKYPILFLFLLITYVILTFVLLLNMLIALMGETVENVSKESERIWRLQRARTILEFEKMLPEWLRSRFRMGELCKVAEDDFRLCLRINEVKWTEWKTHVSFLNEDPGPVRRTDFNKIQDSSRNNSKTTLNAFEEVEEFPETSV
- protocol_description: Calcium flux assay (FLIPR TETRA), inhibition of the 2-APB response
- settings: recombinant HEK293 cells stably expressing TRPV3, Calcium-4 dye, 2-APB at its EC80
pIC50: −log10 of the molar value.
metric_name: pIC50

Example entries begin here.
CC(C)[C@H](CO)NCc1cccc(OCc2ccccc2)n1 :: 6.04
CC(C)[C@H](CO)NCc1nc(-c2cc(F)c(F)cc2F)ccc1F :: 6.80
CC(C)(C)[C@H](CO)NCc1nc(-c2ccc(C(F)(F)F)cc2)ccc1F :: 6.28
CC(C)[C@H](CO)NCc1nc(-c2cncc(Cl)c2)ccc1F :: 5.57
OC[C@H](NCc1ccnc(-c2ccc(C(F)(F)F)cc2)n1)C1CC1 :: 5.52
CC(C)[C@H](CO)NCc1nc(-c2ccc(C(F)(F)F)c(Cl)c2)ccc1F :: 6.54
Cc1ccc(S(=O)(=O)C(F)(F)F)cc1-c1ccc(F)c(CN[C@@H](CO)C(C)C)n1 :: 6.20
CC(C)[C@H](CO)NCc1nc(-c2ccc(F)c(C(F)(F)F)c2)ccc1F :: 6.41
CC(C)[C@H](CO)NCc1nc(N2CCc3ccc(F)cc3C2)ccc1F :: 6.49

1 = CC(C)[C@H](CO)NCc1nc(-c2cc3ccccc3[nH]2)ccc1F
2 = CC(C)[C@H](CO)NCc1nc(C#Cc2ccc(C(C)(C)C)cc2)ccc1F
3 = CC(C)[C@H](CO)NCc1nc(-c2ccc(C(F)(F)F)cc2C(F)(F)F)ccc1F
4 = Cc1ccc(-c2ccc(C(F)(F)F)nc2)nc1CN[C@@H](CO)C(C)C
5 = CC(C)[C@H](CO)NCc1ccc(F)c(-c2ccc(C(F)(F)F)nc2)n1
// sort entries: pIC50, high to low Use the labels to give the ranking in the order requested. 1, 3, 4, 2, 5

Values were extracted from patent US9012651B2.
